experiment: Agilent ZORBAX 300 SB-C18, 150 × 1 mm, 3.5 µm; A: water + 0.01% heptafluorobutyric acid; B: acetonitrile + 0.01% heptafluorobutyric acid; gradient (min/%B) 0/0 100/90; settings: stereoisomer not certain
readout name: LC retention time (min)
# number only, unit min dropped from output

Recorded results for 6 molecules are shown here.
molecule: c1cncc(N2CCN(c3cccnc3)CC2)c1
test result: 7.33

molecule: CCCCC(N)=O
test result: 6.86

molecule: CC1CNCCN1 (centres undefined)
test result: 6.48

molecule: C1CCCNCCC1
test result: 7.37

molecule: c1ccc(-c2cc3ccccc3[nH]2)cc1
test result: 15.8

molecule: c1cc(CCCc2ccncc2)ccn1
test result: 7.37

Field request: LC retention time | item: CCCCCCCCCCn1c(CCC)nc2ccccc21
15.6

Field request: LC retention time | item: COc1ccc(-c2ccccc2)cc1N
11.6

Field request: LC retention time | item: Cc1ccnc(C)c1
6.8

Field request: LC retention time | item: Cc1[nH]c2c(c1C)C(=O)CCC2
8.94

Field request: LC retention time | item: C[N+](C)(C)c1cnc(=O)[nH]c1
2.5

----------
assay: Agilent ZORBAX 300 SB-C18, 150 × 1 mm, 3.5 µm; A: water + 0.01% heptafluorobutyric acid; B: acetonitrile + 0.01% heptafluorobutyric acid; gradient (min/%B) 0/0 100/90; details: stereoisomer not certain
readout name: LC retention time (min)
# number only, unit min dropped from output

Field request: LC retention time | item: Cc1[nH]c(=S)[nH]c1CC(C)C
9.02

Field request: LC retention time | item: COC(=O)CCNC(C)Cc1ccccc1 (centres undefined)
8.9

Field request: LC retention time | item: Cc1ccccc1-n1nnnc1-c1ccc(-c2nnnn2-c2ccccc2C)cc1
15.3

Field request: LC retention time | item: c1ccc2c(Sc3nccc4ccccc34)nccc2c1
14.4

Field request: LC retention time | item: CCCCCCC(C)NCCO (centres undefined)
9.31

Field request: LC retention time | item: Nc1ccc2cc3ccc(N)cc3nc2c1
9.09

Field request: LC retention time | item: CN(C)CCCNC(=O)C(=O)NC1CC1
6.89

Field request: LC retention time | item: Cc1ccc(-c2nn[nH]n2)cc1
9.59

Field request: LC retention time | item: O=c1nc(N2CCOCC2)nc(N(c2ccccc2)c2ccccc2)[nH]1
10.5

----------
test: Agilent ZORBAX 300 SB-C18, 150 × 1 mm, 3.5 µm; A: water + 0.01% heptafluorobutyric acid; B: acetonitrile + 0.01% heptafluorobutyric acid; gradient (min/%B) 0/0 100/90; details: stereoisomer not certain
Recorded measurements of LC retention time, one per entry
# number only, unit min dropped from output

Recorded results for 6 compounds are shown here.
compound: CCOc1ccc(C(c2c[nH]c3ccccc23)c2c[nH]c3ccccc23)cc1
LC retention time / min: 17.2
--
compound: Oc1ccc(-c2cccc(-c3ccc(O)cc3)n2)cc1
LC retention time / min: 10.1
--
compound: Cc1ccc(NC(=O)CCN2CCN(C)CC2)cc1
LC retention time / min: 8.34
--
compound: C[N+](C)(CCOCc1ccccc1)CCOCc1ccccc1
LC retention time / min: 11.7
--
compound: Cc1nc2ccccc2[nH]1
LC retention time / min: 7.36
--
compound: CN(C)C1CCNC1 (configuration not stated)
LC retention time / min: 6.6

Field request: LC retention time | item: O=C(O)CCc1ccc(-c2ccccc2)[nH]1
11.9

Field request: LC retention time | item: CC1(C)CC(NCC(=O)NC2CC(C)(C)NC(C)(C)C2)CC(C)(C)N1
7.71

Field request: LC retention time | item: CC(=O)Nc1ccc(NC(=O)CCC(=O)O)cc1
6.9

Field request: LC retention time | item: c1ccn(-c2ccc3cn[nH]c3c2)c1
11.8

Field request: LC retention time | item: S=C(Nc1ccccc1)N1CCCCC1
12.3

Field request: LC retention time | item: CC(C)c1ccc(C=NNC(=O)C[n+]2ccccc2)cc1
10.4

Field request: LC retention time | item: Cc1cc(C)c2[nH]c3c(c2c1)CCCC3=O
14.8

Field request: LC retention time | item: C[N+]1(CCOCc2ccccc2)CC[N+](C)(CCOCc2ccccc2)CC1 (configuration not stated)
9.32

----------
experiment: Agilent ZORBAX 300 SB-C18, 150 × 1 mm, 3.5 µm; A: water + 0.01% heptafluorobutyric acid; B: acetonitrile + 0.01% heptafluorobutyric acid; gradient (min/%B) 0/0 100/90; conditions: stereoisomer not certain
Would you mind labelling by LC retention time? At or over 10 min is fulfilled, under is not fulfilled.

Known results for compounds:
compound: CN1CCCN=C1C=Cc1cccs1
classification: not fulfilled

compound: CC(C)C(N)C(C)(C)O (centres undefined)
classification: not fulfilled

compound: CCn1c(-c2ccccc2)nn(CN2CCCC2)c1=S
classification: fulfilled

compound: Nc1nc(=Nc2ccccc2)n2c(n1)sc1ccccc12
classification: fulfilled

compound: CCCCCCCCCC(=O)N(C)C
classification: fulfilled

compound: Cc1ccc(N)cc1N
classification: not fulfilled

compound: CN(C)C(=O)c1ccc(N=CNc2ccc(C(=O)N(C)C)cc2)cc1
classification: not fulfilled

compound: Cc1ccc(C(=O)NCc2ccco2)c(C)c1
classification: fulfilled

compound: CN(C)C(=N)N(C)C
classification: not fulfilled

compound: CCCCN1CCCCC1C(=O)Nc1c(C)cccc1C (centres undefined)
classification: fulfilled

Check if LC retention time >= 10 min (inclusive). Item: O=C(Oc1ccccc1)c1cccnc1
fulfilled

Check if LC retention time >= 10 min (inclusive). Item: CC1=CC(=O)C2CC1C2(C)C (centres undefined)
fulfilled

Check if LC retention time >= 10 min (inclusive). Item: O=c1c2ccccc2ncn1Cc1ccncc1
not fulfilled

----------
assay: Agilent ZORBAX 300 SB-C18, 150 × 1 mm, 3.5 µm; A: water + 0.01% heptafluorobutyric acid; B: acetonitrile + 0.01% heptafluorobutyric acid; gradient (min/%B) 0/0 100/90; conditions: stereoisomer not certain
Recorded measurements of LC retention time, one per entry
# number only, unit min dropped from output

Recorded results for 5 molecules are shown here.
molecule: O=C(c1cncc(C(=O)N2CCC(Cc3ccccc3)CC2)c1)N1CCC(Cc2ccccc2)CC1
readout name: LC retention time
test result: 17.1
--
molecule: O=C(c1ccccc1O)N1CCCC1
readout name: LC retention time
test result: 9.29
--
molecule: COc1ccccc1C=NNC(=O)c1ccc(C(C)(C)C)cc1
readout name: LC retention time
test result: 15.3
--
molecule: Cc1ccccc1C=NNC(=O)C(O)(c1ccccc1)c1ccccc1
readout name: LC retention time
test result: 14.5
--
molecule: C#CC(C)(CC)NC(=O)CCc1ccccc1 (stereo unspecified)
readout name: LC retention time
test result: 13

Field request: LC retention time | item: Cc1ccc2c(c1)C(=O)c1cnc(C)cc1-2
10.3

----------
experiment: Agilent ZORBAX 300 SB-C18, 150 × 1 mm, 3.5 µm; A: water + 0.01% heptafluorobutyric acid; B: acetonitrile + 0.01% heptafluorobutyric acid; gradient (min/%B) 0/0 100/90; conditions: stereoisomer not certain
readout name: LC retention time
Answer format: value, then unit.

compound: O=C(C[n+]1ccccc1)C1CC1
readout name: LC retention time
test result: 6.91 min

As a next step, examine the compound that follows.
Field request: LC retention time | item: Cc1ccc(-c2ccc(CCC(=O)O)n2CC(=O)O)cc1
11.5 min

----------
test: Agilent ZORBAX 300 SB-C18, 150 × 1 mm, 3.5 µm; A: water + 0.01% heptafluorobutyric acid; B: acetonitrile + 0.01% heptafluorobutyric acid; gradient (min/%B) 0/0 100/90; details: stereoisomer not certain
readout name: LC retention time (min)
# number only, unit min dropped from output

Recorded results for 3 compounds are shown here.
compound: c1ccc2c3c([nH]c2c1)CCCC3
readout name: LC retention time
test result: 15.7

compound: Cc1cc2n[nH]nc2cc1C
readout name: LC retention time
test result: 9.69

compound: C#Cc1cncn1C
readout name: LC retention time
test result: 6.39

Field request: LC retention time | item: CC(=O)OC1(C(C)=O)CCC2C3CC(C)C4=CC(=O)CCC4(C)C3CCC21C (configuration not stated)
17

Field request: LC retention time | item: CN(C)CCN(Cc1ccccc1)c1ccccn1
10.1

Field request: LC retention time | item: CC(Cc1ccccc1)N(C)Cc1ccccc1 (configuration not stated)
10.8

Field request: LC retention time | item: Nc1cccc2cc(-c3ccccc3)oc12
14.5

Field request: LC retention time | item: NC1CCOC1=O (configuration not stated)
3.11

Field request: LC retention time | item: Nc1nc(=O)n2c(n1)oc1ccccc12
7.8

Field request: LC retention time | item: OC(Cc1c[nH]c2ccccc12)(c1ccccc1)c1ccccc1
16.1

Field request: LC retention time | item: Cc1ccc(OC(=O)CCC(=O)N2CCN(C(=O)CCC(=O)Oc3ccc(C)cc3)CC2)cc1
14.3

Field request: LC retention time | item: O=C1CC(N2CCN(C(c3ccccc3)c3ccccc3)CC2)C(=O)N1c1cccc2ccccc12 (configuration not stated)
12.4

The measurements presented in this section are drawn from the RepoRT retention time repository.
